# Test system: SF-295
# procedureDetails: NCI 60 cell line five dose, CNS Cancer
# statedConditions: read-out: LC50, molar
readoutKind: CC50 (µM)
Give the value, in units of µM, as a plain number.

# CC50 (molecule: C=C1C(=O)O[C@H]2[C@H]1CC/C(COC(=O)NCCCCCCCCNC(=O)OC/C1=C/CC[C@@]3(C)O[C@H]3[C@H]3OC(=O)C(=C)[C@@H]3CC1)=C\CC[C@@]1(C)O[C@@H]21 ) is 16.2

---

# Tested on: UACC-62
# procedureDetails: NCI 60 cell line five dose, Melanoma
readoutKind: GI50

Use these answered entries as a reference point.
{"molecule": "C=C1C(=O)O[C@H]2[C@H]1CC/C(COC(=O)CCC(=O)NCCCCCCCCCNC(=O)CCC(=O)OC/C1=C/CC[C@@]3(C)O[C@H]3[C@H]3OC(=O)C(=C)[C@@H]3CC1)=C\\CC[C@@]1(C)O[C@@H]21 [JVM 2-92]", "GI50": "1690 nM"}
{"molecule": "C=C1C(=O)O[C@H]2[C@H]1CC/C(COC(=O)NCCCCNC(=O)OC/C1=C/CC[C@@]3(C)O[C@H]3[C@H]3OC(=O)C(=C)[C@@H]3CC1)=C\\CC[C@@]1(C)O[C@@H]21 [JVM 3-54]", "GI50": "753 nM"}
{"molecule": "C=C1C(=O)O[C@H]2[C@H]1CC/C(COC(=O)NCCCCCNC(=O)OC/C1=C/CC[C@@]3(C)O[C@H]3[C@H]3OC(=O)C(=C)[C@@H]3CC1)=C\\CC[C@@]1(C)O[C@@H]21 [JVM 2-76]", "GI50": "1410 nM"}

// moving on: another record for GI50
# GI50 (molecule: C=C1C(=O)O[C@H]2[C@H]1CC/C(COC(=O)CCC(=O)NCCCCCCCCNC(=O)CCC(=O)OC/C1=C/CC[C@@]3(C)O[C@H]3[C@H]3OC(=O)C(=C)[C@@H]3CC1)=C\CC[C@@]1(C)O[C@@H]21 [JVM 2-87] ) is 1970 nM
